Where these numbers come from: patent US20230202989A1

Catalogue of compounds with associated IC50
test system: IL-1β; assay: PBMC assay: inhibition of IL-1β release after LPS stimulation (MSD); assay type: cell-based; settings: Homo sapiens, PBMC, human PBMCs, LPS stimulation, 384 well plate; read-out: IL1β IC50
Give your result in nM as a bare value.

CCc1ccc2c(=O)n(CC(=O)Nc3ccncn3)nc(CC)c2c1	700

Now take the following compound into account.
-- ask Tell us which IC50 value is on record for CCc1nn(CC(=O)Nc2ccncn2)c(=O)c2ccc(C(F)F)cc12
-- reply 920

---

tested on: IL-1β; assay: PBMC assay: inhibition of IL-1β release after LPS stimulation (MSD); type: cell-based; settings: Homo sapiens, PBMC, 6 h, human PBMCs, 100 ng/ml LPS for 6 hrs, MSD, 96 well plates; read-out: IL1β IC50
result.type: pIC50
Please report pIC50 as the negative decimal logarithm of the molar concentration, giving only the number.

Solved cases (6 shown):
COC(C)(C)c1ccc2c(=O)n(CC(=O)N[C@H]3C[C@@](C)(O)C3)nc(C(C)C)c2c1 [X-1058]	5.34
CC(C)(F)c1nn(CC(=O)N[C@H]2C[C@@](C)(O)C2)c(=O)c2ccc(C(F)(F)F)cc12 [Final Cpd X145]	5.30
CC(C)c1nn(CC(=O)N[C@@H]2CC[C@H]2O)c(=O)c2ccc(C(F)(F)F)cc12 (single isomer, unassigned) [Final Cpd X149]	5.19
CC(C)c1nn(CC(=O)Nc2ccc(=O)n(CCN(C)C)n2)c(=O)c2ccc(C(F)(F)F)cc12 [Final Cpd X40]	6.46
CC(C)c1nn(CC(=O)Nc2ncc3c(ncn3C)n2)c(=O)c2ccc(C(F)(F)F)cc12 [Final Cpd X80]	6.06
CC(C)c1nn(CC(=O)Nc2ccc3nncn3c2)c(=O)c2ccc(C3CC3(F)F)cc12 (stereo not shown) [X-1069]	5.94

Now take the following compound into account.
-- ask Tell us which pIC50 value is on record for Cc1nnc2n1C[C@H](NC(=O)Cn1nc(C(C)C)c3cc(C(F)(F)F)ccc3c1=O)CC2 (single isomer, unassigned) [Final Cpd X163]
-- reply 4.82

---

result.type: melting point (°C)
Give your result in °C as a bare value.

Solved cases (4 shown):
CC(C)c1nn(CC(=O)Nc2cc(F)[nH]c(=O)c2)c(=O)c2ccc(C(F)(F)F)cc12	232.18
CC(C)c1nn(CC(=O)Nc2ccn3ncnc3c2)c(=O)c2ccc(C(F)(F)F)cc12	215.56
CC(C)c1nn(CC(=O)Nc2ccc3cncn3c2)c(=O)c2ccc(C(F)(F)F)cc12	222.09
CC(C)c1nn(CC(=O)Nc2ccc3nc[nH]c3n2)c(=O)c2ccc(C(F)(F)F)cc12	295.46

-- ask Tell us which melting point value is on record for O=C(Cn1nc(C2CC2)c2cc(C(F)(F)F)ccc2c1=O)Nc1ccc2nncn2c1
-- reply 294.49

-- ask Tell us which melting point value is on record for CCN1CC[C@@H](O)[C@@H](NC(=O)Cn2nc(C3CC3)c3cc(C(F)(F)F)ccc3c2=O)C1
-- reply 178.86

-- ask Tell us which melting point value is on record for CC(C)c1nn(CC(=O)Nc2ccc3nncn3n2)c(=O)c2ccc(C(F)(F)F)cc12
-- reply 246.08

-- ask Tell us which melting point value is on record for CC(C)c1nn(CC(=O)Nc2ccc3nccn3n2)c(=O)c2ccc(C(F)(F)F)cc12
-- reply 238.55
